experiment: Evaluation of conversion rate to active form in buffer solution (Experimental Example 1); assay type: physicochemical; conditions: pH5.0, 0 hr

COMPOUND | Production rate of Alvocidib [%]
CC(C)[C@H](N)C(=O)O[C@@H]1CN(C)CC[C@@H]1c1c(O)cc(O)c2c(=O)cc(-c3ccccc3Cl)oc12 [Comparative Example 10, reference compound] | 2.0
C[C@H](N)C(=O)O[C@@H]1CN(C)CC[C@@H]1c1c(O)cc(O)c2c(=O)cc(-c3ccccc3Cl)oc12 [Comparative Example 7, reference compound] | 2.8
CNC(=O)O[C@@H]1CN(C)CC[C@@H]1c1c(O)cc(O)c2c(=O)cc(-c3ccccc3Cl)oc12 [Comparative Example 5, reference compound] | 0.0
CNC(=O)Oc1cc(O)c2c(=O)cc(-c3ccccc3Cl)oc2c1[C@H]1CCN(C)C[C@H]1O [Comparative Example 2, reference compound] | 2.0
